Cited source for all entries: the nanobody polyreactivity screen of Harvey et al. (2022)

experimentalDetails: yeast display, Sf9 membrane polyspecificity reagent, FACS + sequencing; frameworks hold sequencing errors

{"columns": ["seqString", "polyreactivity (PSR sort gate)"],
 "data": [
  ["QVQLVESGGGLVQAGGSLRLSCAASGFTFAGNTMGWYRQAPGKERELVAAINSGGSTHYADSVKGRFTISRDNAKNTVYLQMNSLKPEDTAVYYCADYLTRYGAYYWGQGTQVTVSS", "high polyreactivity"],
  ["QVQLVESGGGLVQAGGILRLSCAASGSIFGGYGMGWYRQAPGKERELVAAITSVSSTYYADSVKGRFTISRDNAMNTVYVQMNSLKPEDTAVYYCAARPYPHSAYEGDYWGRGTQVTVSS", "low polyreactivity"],
  ["QVQLVESGGGLVQAGGSLRLSCAASGSIFQPYAMGWYRQAPGKERELVAAISSSGGSTTYADSVKGRFTISRDNAKNTVYLQMNSLKPEDTAVYYCAADVEYKVFPGDYWGQGTQVTVSS", "low polyreactivity"],
  ["QVQLVESGGGLVQAGGSLRLSCASSGRIFLVYAMGWYRQAPGKERELVAAISYSGGRTYYADSVKGRFTISRDNAKNTVYLQMNSLKPEDTAVYYCAAKRITYYGGGRFYYWGQGTQVTVSS", "high polyreactivity"],
  ["QVQLVESGGGLVQAGGSLRLSCAASGFIFVLYAMGWDRQAPGKERELVAAINGGSSTNYADSVKGRFTISRDNAKNTVYLQMNSLKPEDTAVYYCAADVIPDGVKKPRMYYWGQGTQVTVSS", "low polyreactivity"],
  ["QVQLVESGGGLVQAGGRLRLSCAASGYIFKSYVMGWYRQAPGKERELVAAITWSGGSTYYADSVKGRFTISRDNAKNTVYLQMNSLKPEDTAVYYCAAYPRRYRTTYDYWGQGTQVTVSS", "high polyreactivity"],
  ["QVQLVESGGGLVQAGGSLRLSCAASGSTFPFYVMGWYRQAPGKERELVASIRGTGGNTYYADSVKGRFTISRDNAKNTVYLQMNSLKPEDTAVYYCNAVYRLSHYDLDYWGQGTQVTVSS", "high polyreactivity"],
  ["QVQLVESGGGLVQAGGSLRIICAASGRIFYGNTMGWYRQAPGKERELVAAITIGDSTNYADSVKGRFTISRDNAKNTVYFQMNSLKPEDTAVYYCAKRNWWGYYNYDYWGQGTQVTVSS", "low polyreactivity"],
  ["QVQLVESGGGLVQAGGSLRLSCAASGSTFRWYAMGWYRQAPGKERELVAAITWSGGRTYYADSVKGRFTISRDNAKNTVYLQMNSLKPEDTAVYYCAADRGPEHWYDYYYWGQGTQVTVSS", "high polyreactivity"],
  ["QVQLVESGGGLVQAGGSLRLSCAASGIIFRYNAMGWYRQAPGKERELVAVINWRSGGTYYADSVKGRFTISRDNAKNTVYLQMNSLKPDDTADYYCADRVGSWTQSFGYDYWGQGTQVTVSS", "high polyreactivity"],
  ["QVQLVESGGGLVQAGGSLRLSCAASGRTFYSNVMGWYRQAPGKERELVAAISSSTYYADSVKGRFTISRDNANNTVYLQMNSLKPEDTAVYYCAAYSRYYPYYRYGYLGQGTQVTVSS", "high polyreactivity"]
]}

###

experimentalDetails: yeast display, Sf9 membrane polyspecificity reagent, FACS + sequencing; frameworks hold sequencing errors
measuredProperty: polyreactivity (PSR sort gate)

{"columns": ["seqString", "resultValue"],
 "data": [
  ["QVQLVESGGGLVQAGGSLRLSCAASGSIFAYNAMGWYRQAPGKERELVAGISSRGVSTYADSVKGRFTISRDNAKNTVYLQMNSLKPEDTAVYYCARGGYWGKRGRYDYWGQGTQVTVSS", "low polyreactivity"],
  ["QVQLVESGGGLVQAGGSLRLSCAASGSIFTHYPMGWYRQAPGKERELVAAISRRGGSTYYADSVKGRFTISRDNAKNTVYLQMNSLKPEDTAVYYCAKSPDTAKEYDYWGQGTQVTVSS", "high polyreactivity"],
  ["QVQLVESGGGVVQAGGSLRLSCAASGRTFSYYAMGWYRQSPGKERELVATISYSTGNTNYADSVKGRFTISRDNAKNTVYLQMNSLKPEDTAVYYCAADFSPFVGETYWKYDYWGQGTQVTVSS", "low polyreactivity"],
  ["QVQLVESGGGLVQAGGSLRLSCAASGRTFKIYAMGWYRQAPGKERELVAAISRGGRTYYADSVKGRFTISRDNAKNTVYLQMNSLKPEDTAVYYCAADLLISPEFYYWGQGTQVTVSS", "high polyreactivity"],
  ["QVQLVESGGGLVQAGGSLRLSCAASGSIFPYNAMGWYRQAPGKERELVATISSGGSTNYADSVKGRFTISRDNAKNTVYLHMNSLKPEDTAVYYCAADVIVFYYAPNYWGDIGYGYWGQGTQVTVSS", "low polyreactivity"],
  ["QVQLVESGGGLVQEGGSLRLICAASGRILRDNAMGWYRQAPGKERELVAAISVSTVSTYYADSVKGLFTISRDNANNTVYFHMNSLKPEDTAVYYCNADATDSYPEKDEHDSWGQGTQVTVSS", "low polyreactivity"],
  ["QVQLVESGGGLVQAGGSLRLSCAASGGTFTFKTMGWYRQAPGKERQLVAAISISGGSTYYADSVKGRFTISRDNAKNTVYLQMNSLKPEDTAVYYCAAQYVRTPSPEYDYWGQGTQVTVSS", "high polyreactivity"],
  ["QVQLVESGGGLVQAGGSLRLSCAASGITFLFYAMGWYRQAPGKERELVAAISRSGGSTYYADSVKGRFTISRDNAKNTVYLQMNSLKPEDTAVYYCAARSKDGGGPMYYWGQGTQVTVSS", "high polyreactivity"],
  ["QVQLVESGGGLVQAGGSLRLSCAASGRIFLGYTMGWYRQAPGKERELVASMTWSGGSTYYADSVKGRFTISRDKAKNTVYVQMNSLKPEDTAVYYCIAVFWVARGRYDYWGQGTQVTVSS", "high polyreactivity"],
  ["QVQLVESGGGLVQAGGSLRISCAASGRTFADYAMGWSRQEPGKERELVAAISWSGGSTYYADSVKGRFTISCDNAKNTVYLQMNSLKPEDTAVYYSNAVRQRGYDYWGQGTQVTVSS", "low polyreactivity"],
  ["QVQLVESGGGLVQAGGSLRLSCAASGSTFRRYAMGWYRQAPGKERELVAGITSGGDTYYADSVKGRFTISRDNAKNTVYLQMNSLKPEDTALYYCARVRYGRMDYWGQGTQVTVSS", "high polyreactivity"],
  ["QVQLVESGGGLVQAGGSLRLSCDASGRTCFKYAMGWYRQAPGKERELVATITSSGGITYADSVKGRFTISRDNAKNTVYLQMNSLKPEDTAVYYCNARVWVTHYSELNYWGQGTQVTVSS", "low polyreactivity"],
  ["QVQLVESGGGLVQAGGRLRLSCAASGSTLDTYAMGWYRQAPGKERELVAGITWSGGSTYYADSVKGRFTISRDNAKNTVYLQMNSLKPEDTAVYYCAAYSPYGPRYDYWGQGTQVTVSS", "low polyreactivity"],
  ["QVQLVESGGGLFQAGGSLRLSCAASGIIFRYYAMGWSRQAPGKEREFVASINFSGSSTYYADSVKGRFTISRDKAKNTVYLQMNSLKPEDTAVYYCAAGRRWLYDYWGQGTQVTVSS", "high polyreactivity"],
  ["QVQLVESGGGIVQAGGSLRLSCAASGFIISYNAMVWYRQAPGKERELVAAISSRGGSTYYADSVKGRFTISRDNAKNTVYLQMNSLKPEDTAVYYCAVASRRVYTAPYDYWGQGTQVSVSS", "high polyreactivity"],
  ["QVQLVESVGGLVQAGGSLRLSCAASGRIFLWYAMGWYRQAPGKERELVAAISGSGGSTSYADSVKGRITISRDNAKNTVYLQMNSLKPEDTAVYYCAALYRTWARYKVYYWGQGTQVTVSS", "high polyreactivity"],
  ["HVQLVESGGGLVQAGCSLRLSCAASGSIFLRNTMGWYRQAPGKEREFVAAITKRGGTTYYADSVKGRFTMSRDNAKNTVYLQMNSLKPDDTAVYYCAKSYDNEYGYWGQGTQVTVSS", "high polyreactivity"],
  ["QVQLVESGGGLVQAGGSLRLSCAASGSTFLRNAMGWYRQAPGKQGSWVATISYDGDSTYYADSVTGRFTISRDNAKNTVYLQMNSLKPDDPAVYYCAASYSQTFWDKDDYWGQGTQVTVSS", "low polyreactivity"],
  ["QVQLVESVGGLVQAGGSLRLSCAASGSILAVNAMGWYRQAPGKERELVAAISSRGGSTSYADSVKGRYTISRDNAKNTVYLQMNSLKPEDTAVYYCAVRAVRRLRTSVPVRFYYWGQGTQVTVSS", "high polyreactivity"],
  ["QVQLVESGGGLVQAGGSLRLSCAANGYIFLIYDRGWYRQSPGKEMELVAAISNSVGSTYADSVKGRFTISRDNAKNTDYLQMNSLKPEDTAVYYCNADSGPIDGRGGYWGQGTQVTVSS", "low polyreactivity"],
  ["QVQLVESGGGLVQAGGSLRLSCAASGFIFTYYTMGWYRPAPGKERELVAAISRTGSTNYADSVKGRFTISRDNAKNTVYLQMNSLKPEDTAVYFCNARYRGWLTLDGGYGYWGQGTQVTVSS", "low polyreactivity"]
]}
